Assay: preservation of ATP in cytokine-treated beta cells – cell-based, ATP luminescence, single point, primary screen (AID 488910)
Details: INS-1E cytokine-induced death, 48 h, at 10 µM, stronger effect = higher value, normalised: neutral wells 0, positive control 100
In all, about 20,000 compounds went through this assay and about 25 (0.1%) were called active. What follows is part of a selection rich in actives, with near analogues and random picks from the rest.
reported property: protection from cytokine-induced ATP loss (%)
All answers are understood in %, so give the number only.

Value of measured protection from cytokine-induced ATP loss for the entry C[C@H](CO)N1C[C@H](C)[C@H](CN(C)C(=O)Nc2ccc(C(F)(F)F)cc2)Oc2ccc(NS(=O)(=O)c3cn(C)cn3)cc2CC1=O : 19

Value of measured protection from cytokine-induced ATP loss for the entry C[C@@H]1CN([C@H](C)CO)C(=O)c2cc(NS(=O)(=O)c3ccccc3)ccc2O[C@H]1CN(C)S(=O)(=O)c1ccc(Cl)cc1 : -7.86

Value of measured protection from cytokine-induced ATP loss for the entry C[C@H]1CN([C@@H](C)CO)C(=O)c2cccc(NS(=O)(=O)c3cn(C)cn3)c2O[C@@H]1CN(C)C(=O)Nc1ccc(F)cc1 : 11.3

Value of measured protection from cytokine-induced ATP loss for the entry COc1ccc(NC(=O)N(C)C[C@H]2Oc3c(NC(=O)Nc4cccc5ccccc45)cccc3C(=O)N([C@H](C)CO)C[C@@H]2C)cc1 : -0.252

Value of measured protection from cytokine-induced ATP loss for the entry Cc1noc(C)c1NC(=O)Nc1ccc2c(c1)C(=O)N([C@H](C)CO)C[C@H](C)[C@H](CN(C)Cc1ccc(Oc3ccccc3)cc1)O2 : -15.9

Value of measured protection from cytokine-induced ATP loss for the entry C[C@@H]1CN([C@@H](C)CO)C(=O)Cc2cc(NS(=O)(=O)c3ccc(F)cc3)ccc2O[C@@H]1CN(C)S(=O)(=O)c1cccs1 : 4.79

Value of measured protection from cytokine-induced ATP loss for the entry COC(=O)CCCCCCC(=O)N/N=C/c1c(Cl)cc(OC)c(OC)c1Cl : 2.23

Value of measured protection from cytokine-induced ATP loss for the entry C[C@H](CO)N1C[C@H](C)[C@H](CN(C)Cc2ccc(Oc3ccccc3)cc2)Oc2c(NC(=O)CCCCCC(=O)Nc3ccccc3N)cccc2C1=O : -9.83

Value of measured protection from cytokine-induced ATP loss for the entry Cc1noc(C)c1NC(=O)N(C)C[C@@H]1Oc2c(NC(=O)C3CCCCC3)cccc2C(=O)N([C@H](C)CO)C[C@@H]1C : 10.1

Value of measured protection from cytokine-induced ATP loss for the entry C[C@@H]1CN([C@H](C)CO)C(=O)c2cc(NS(=O)(=O)c3cn(C)cn3)ccc2O[C@H]1CN(C)S(=O)(=O)c1ccc(Cl)cc1 : 0.346

Value of measured protection from cytokine-induced ATP loss for the entry C[C@@H]1CN([C@H](C)CO)C(=O)c2cccc(NS(=O)(=O)c3ccc(F)cc3)c2O[C@@H]1CN(C)S(=O)(=O)c1ccc(Cl)cc1 : 0.697

Value of measured protection from cytokine-induced ATP loss for the entry Cc1ccc(S(=O)(=O)N(C)C[C@@H]2Oc3ccc(NC(=O)c4ccncc4)cc3CC(=O)N([C@H](C)CO)C[C@H]2C)cc1 : -0.881

Value of measured protection from cytokine-induced ATP loss for the entry C[C@H]1CN([C@@H](C)CO)C(=O)c2cc(NC(=O)Cn3cnnn3)ccc2O[C@H]1CN(C)Cc1ccc(C(=O)O)cc1 : 1.96

Value of measured protection from cytokine-induced ATP loss for the entry CNC[C@H]1Oc2ccc(NS(=O)(=O)c3cn(C)cn3)cc2C(=O)N([C@@H](C)CO)C[C@@H]1C : -1.06
